Tested on: NCI/ADR-RES ovarian
Assay: NCI tumour cell line growth inhibition, 48 h
METRIC: TGI (µM)
Kindly provide the numeric value in µM only, without the unit symbol.

SMILES_REPRESENTATION: O=[N+]([O-])/C=C\c1ccc(Cl)c(Cl)c1
MEASUREMENT_TARGET: NCI/ADR-RES ovarian
TGI [µM]: 4.78
//
SMILES_REPRESENTATION: Cc1c(C(=O)N/N=C/c2ccc(Cl)cc2)nnn1-c1ccnc2c(C(F)(F)F)cccc12
MEASUREMENT_TARGET: NCI/ADR-RES ovarian
TGI [µM]: 13.8

Test system NCI/ADR-RES ovarian; read-out TGI; what value for O=C1/C(=C/c2ccc(Br)cc2)C=C(c2ccccc2)N1CCc1ccccc1 ? 8.01

Please give the result for CC[CH2][Pb]([CH2]CC)([CH2]CC)[O]C(=O)C(F)(F)F too. 1.06

Now try COc1ccc2c(c1)c(-c1nc(-c3cn(C)c4ncccc34)cs1)cn2CCCN1CCCCC1 . 3.46

Item: CC(C)c1ccc2[nH]c(O)c(-c3[nH]c4ccccc4c3N=O)c2c1 22
